# Test system: ACHN renal
# procedure-summary: NCI-60 one-dose screen, 48 h
# experimental-setup: 10 µM unless noted
Compounds without any hit were thinned out: in the full panel of roughly 83,000, 20% have a hit. The source made the active and inactive calls. Rule for the calls: active = growth percent below 10; inactive = the rest.
Pick from t for active, f for inactive when you respond.

Asked: So what was the verdict on CC12OC(CC(O)C1O)n1c3ccccc3c3c4c(c5c6ccccc6n2c5c31)C(=O)N(CCN1CCOCC1)C4=O (stereo unspecified) in this test?
Given back: t

Asked: // param item: N=C(N)c1ccc(-c2ccc(-c3ccc(Cl)c(Cl)c3)s2)cc1 ; yields the recorded call
Given back: t

Asked: // param item: O=c1oc2c(Br)cc(Br)cc2cc1-c1cc(-c2ccc(-c3cc(-c4cc5cc(Br)cc(Br)c5oc4=O)nc(-c4cc5cc(Br)cc(Br)c5oc4=O)c3)cc2)cc(-c2cc3cc(Br)cc(Br)c3oc2=O)n1 ; yields the recorded call
Given back: f

Asked: GET /call?item= CC(=O)/C=C/c1ccc(N(C)Cc2ccc(C(C)(C)C)cc2)cc1 returns the recorded outcome of this test.
Given back: f

Asked: Test call for this compound, please: COc1cc2cc(NCc3ccncc3)nc(C)c2cc1OC
Given back: f

Asked: Outcome logged for CN(C)CCCn1c2nc(=O)[nH]c(=O)c-2nc2cc(Cl)c(Cl)cc21 in this assay:
Given back: f
